Below is a list of entries, each paired with its recorded RAMPO Score value.
Target: T1, P3028 (VFDEFKPLVEEPQNLIK, SEQ ID NO: 185), His-tagged (human)
T1 construct: Synthetic fragment of human serum albumin (positions 397-413); used in solution as His-tagged peptide PGE73; also called PGE73; not shown: His-tag
T1 peptide: VFDEFKPLVEEPQNLIK
Assay: PEPSCAN ELISA; peptide on chip, His-P3028 added;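 note: peroxidase color development with ABTS and H2O2 substrate, OD405 imaged by CCD camera with image processing and taken as raw values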
Measurement type: RAMPO Score (rampo units)

1) KKLDTFFVKFSLFTER [KKLDTFFVKFSLFTER (SEQ ID NO: 333)]
403
2) KKLDTFFVKISLFTER [KKLDTFFVKISLFTER (SEQ ID NO: 335)]
415
3) KKLDTFFVHLSLFTER [KKLDTFFVHLSLFTER (SEQ ID NO: 488)]
306
4) KKLDTFFVKLSLFQER [KKLDTFFVKLSLFQER (SEQ ID NO: 493)]
301
5) KKLDTFFVKLSLRTER [KKLDTFFVKLSLRTER (SEQ ID NO: 371)]
502
6) KKKDTFFVKLSLFTER [KKKDTFFVKLSLFTER (SEQ ID NO: 290)]
386
7) KKLDTFFVKLSLPTER [KKLDTFFVKLSLPTER (SEQ ID NO: 369)]
696
8) KKLDTNFVKLSLFTER [KKLDTNFVKLSLFTER (SEQ ID NO: 316)]
446
